Test: microbe, parasite or virus in culture
Settings: Mycobacterium tuberculosis, 72 h, read-out: pIC50 (converted)
Measurement Kind: IC50

# annotated cases, reported IC50 shown
CN(Cc1ccc(Cl)s1)C(=O)C1CCN(C(N)=O)CC1 :: > 501 µM
O=C(c1ccc(NCc2cccc(F)c2)cc1)N1CCCC1 :: > 50.1 µM

Prompt: Item under review: "CCOc1ncccc1CNC(=O)c1[nH]ncc1Br" . Reported IC50?
Response: > 501 µM

Prompt: Then CCOC(C)c1nc(Cn2cccn2)cs1 (stereo unspecified) ?
Response: > 50.1 µM

Prompt: Then "c1ccc(-c2nc(CCNCc3ccncc3)co2)cc1" ?
Response: > 50.1 µM
